# Target or system: human GcgR (Homo sapiens)
# Sequence (P47871 26-477): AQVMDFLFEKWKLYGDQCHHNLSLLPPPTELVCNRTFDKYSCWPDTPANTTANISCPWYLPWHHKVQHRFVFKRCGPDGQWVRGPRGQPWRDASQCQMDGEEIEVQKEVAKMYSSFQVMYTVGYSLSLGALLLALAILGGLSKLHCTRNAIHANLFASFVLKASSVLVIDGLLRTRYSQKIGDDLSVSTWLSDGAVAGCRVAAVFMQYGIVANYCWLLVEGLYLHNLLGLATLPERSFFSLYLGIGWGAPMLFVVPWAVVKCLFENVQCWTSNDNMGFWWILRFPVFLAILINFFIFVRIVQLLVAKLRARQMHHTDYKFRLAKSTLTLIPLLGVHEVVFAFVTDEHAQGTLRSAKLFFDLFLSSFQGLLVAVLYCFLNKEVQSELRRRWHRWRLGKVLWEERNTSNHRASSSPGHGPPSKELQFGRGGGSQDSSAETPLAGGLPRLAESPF
# Test summary: Functional cAMP activity in the presence of 1% HSA
# Assay type: cell-based
# Condition parameters: read-out: cAMP Rel EC50, hGcgR
pEC50: −log10 of the molar value. Starred links: 1 amine or outer side, 2 acyl side, 3 side chain; linkers in the order of their positions; H or OH if unused. Non-standard residues stand in square brackets, D forms with d. Groups on a side chain read outwards from the residue. No end group written: not given here. *: point of attachment. C20 diacid = O=C(O)CCCCCCCCCCCCCCCCCCC(=O)*; C18 diacid = O=C(O)CCCCCCCCCCCCCCCCC(=O)*; Phe(4-CN) = N#Cc1ccc(C[C@H](N)C(=O)O)cc1; αMePhe(2-F) = C[C@](N)(Cc1ccccc1F)C(=O)O; γGlu = O=C(O)[C@H](CCC(=O)[*:2])N[*:1]; αMe4Pal = C[C@](N)(Cc1ccncc1)C(=O)O; αMeY = C[C@](N)(Cc1ccc(O)cc1)C(=O)O; 4Pal = N[C@@H](Cc1ccncc1)C(=O)O; αMeL = CC(C)C[C@](C)(N)C(=O)O; Orn = NCCC[C@H](N)C(=O)O; AEEA = NCCOCCOCC(=O)O; Aib = CC(C)(N)C(=O)O
Lab note: anything with pEC50 at or over 6 counts as Yes; the rest go in No.

Solved cases below.
[
  {
    "Substance": "H-Y[Aib]QGTFTSDFSK[αMeL]LDKK([AEEA-γGlu-C20 diacid])AQ[Aib]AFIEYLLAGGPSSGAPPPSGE-NH2 [Example 11]",
    "Assigned category": "No"
  },
  {
    "Substance": "H-Y[Aib]QGTFTSDFS[Orn][αMeL]LDKK([AEEA-γGlu-C18 diacid])AQ[Aib]AFIEYLIE[Aib]GESSGAPPPSGE-NH2 [Example 219]",
    "Assigned category": "No"
  },
  {
    "Substance": "H-Y[Aib]QGT[αMePhe(2-F)]TSD[4Pal]SI[αMeL]LD[Orn][Orn]([γGlu-γGlu-C18 diacid])AQ[αMe4Pal][Orn]FI[dE][αMeY]LIEGGPSSGEPPPETE-NH2 [Example 1209]",
    "Assigned category": "Yes"
  }
]

State whether the measured pEC50 reaches 6, counting equality as reaching it, for H-Y[Aib]QGTFTSD[4Pal]SQ[αMeL]LDKK([γGlu-γGlu-C18 diacid])AQ[αMe4Pal]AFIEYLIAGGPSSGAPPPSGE-NH2 [Example 883]
Yes

State whether the measured pEC50 reaches 6, counting equality as reaching it, for H-Y[Aib]QGTFTSD[4Pal]SR[αMeL]LDKK([AEEA-γGlu-C18 diacid])AQ[αMe4Pal]AFIEYLIE[Aib]GESSGAPPPSGS-NH2 [Example 224]
Yes

State whether the measured pEC50 reaches 6, counting equality as reaching it, for Y[Aib]QGTFTSD[4Pal]SQ[αMeL]LDKK([γGlu-dE-dE-C18 diacid])AQ[αMe4Pal]AFIEYLIE[Aib]GPSSGAPPPSGSEE-NH2 [Example 930]
No

State whether the measured pEC50 reaches 6, counting equality as reaching it, for H-Y[Aib]QGT[αMePhe(2-F)]TSD[Phe(4-CN)]SILLDKQAQK([AEEA-γGlu-C20 diacid])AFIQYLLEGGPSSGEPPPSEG-NH2 [Example 341]
No
